assay: self-splicing fitness, log relative to wild type (ln ratio); higher = more splicing; Tetrahymena group I intron in knt gene, E. coli kanamycin selection, DiMSum; sequences stand for … in CUCUCU…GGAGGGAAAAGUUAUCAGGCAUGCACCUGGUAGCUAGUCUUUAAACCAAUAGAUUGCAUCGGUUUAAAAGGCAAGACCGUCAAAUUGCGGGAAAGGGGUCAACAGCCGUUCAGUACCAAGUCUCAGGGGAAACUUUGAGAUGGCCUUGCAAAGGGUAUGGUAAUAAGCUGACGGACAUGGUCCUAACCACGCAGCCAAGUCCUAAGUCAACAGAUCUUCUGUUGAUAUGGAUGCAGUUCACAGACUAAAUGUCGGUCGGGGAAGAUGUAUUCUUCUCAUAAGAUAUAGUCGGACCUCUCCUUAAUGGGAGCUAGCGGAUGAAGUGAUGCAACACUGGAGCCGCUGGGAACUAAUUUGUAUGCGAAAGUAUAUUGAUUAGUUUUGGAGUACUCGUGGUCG; conditions: 37 °C;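 also: selection with 25 µg/mL kanamycin versus none on LB agar overnight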
# maps each entry to its self-splicing fitness (ln)
Please reply with the number alone, leaving off any unit.

Example results:
>  <BIOPOLYMER SEQUENCE>
UAUAAGCAAUAUUACGCAUC

>  <PROPERTY MEASURED>
self-splicing fitness (ln)

>  <MEASURED>
-2.38

$$$$
>  <BIOPOLYMER SEQUENCE>
UCACAGCAAUAUUACGGCCU

>  <PROPERTY MEASURED>
self-splicing fitness (ln)

>  <MEASURED>
-1.99

$$$$
>  <BIOPOLYMER SEQUENCE>
UGGUAGCAAUAUUACGUCUA

>  <PROPERTY MEASURED>
self-splicing fitness (ln)

>  <MEASURED>
0.358

$$$$
>  <BIOPOLYMER SEQUENCE>
GUUUAGCAAUAUUACGGAGU

>  <PROPERTY MEASURED>
self-splicing fitness (ln)

>  <MEASURED>
-1.63

$$$$
>  <BIOPOLYMER SEQUENCE>
UCAUAGCAAUAUUACGUUGC

>  <PROPERTY MEASURED>
self-splicing fitness (ln)

>  <MEASURED>
-2.31

$$$$
>  <BIOPOLYMER SEQUENCE>
UGGGAGCAAUAUUACGCUUU

>  <PROPERTY MEASURED>
self-splicing fitness (ln)

>  <MEASURED>
-2.01

$$$$
>  <BIOPOLYMER SEQUENCE>
ACAAAGCAAUAUUACGGAGA

>  <PROPERTY MEASURED>
self-splicing fitness (ln)

>  <MEASURED>
-2.39

$$$$
>  <BIOPOLYMER SEQUENCE>
GUAGAGCAAUAUUACGACAC

>  <PROPERTY MEASURED>
self-splicing fitness (ln)

>  <MEASURED>
0.357

$$$$
>  <BIOPOLYMER SEQUENCE>
AGGAAGCAAUAUUACGCAGA

>  <PROPERTY MEASURED>
self-splicing fitness (ln)

>  <MEASURED>
-1.33

$$$$
>  <BIOPOLYMER SEQUENCE>
UCUAAGCAAUAUUACGUACG

>  <PROPERTY MEASURED>
self-splicing fitness (ln)

>  <MEASURED>
0.49

$$$$

Lookup: # self-splicing fitness (ln) lookup, item CCGGAGCAAUAUUACGUGCG
Found: -0.676

Lookup: Same read-out for GUGCAGCAAUAUUACGAUGU ?
Found: -0.37

Lookup: Same read-out for GUCCAGCAAUAUUACGAUCC ?
Found: -0.16

Lookup: Same read-out for CCGAAGCAAUAUUACGCUUU ?
Found: -3.33

Lookup: Same read-out for GGGUAGCAAUAUUACGGGGA ?
Found: -2.31

Lookup: Same read-out for CAGAAGCAAUAUUACGCAGG ?
Found: -1.73
